Where these numbers come from: patent US9242943B2

Target: recombinant human cathepsin E (Homo sapiens (Human), UniProt P14091)
Sequence (P14091 54-396): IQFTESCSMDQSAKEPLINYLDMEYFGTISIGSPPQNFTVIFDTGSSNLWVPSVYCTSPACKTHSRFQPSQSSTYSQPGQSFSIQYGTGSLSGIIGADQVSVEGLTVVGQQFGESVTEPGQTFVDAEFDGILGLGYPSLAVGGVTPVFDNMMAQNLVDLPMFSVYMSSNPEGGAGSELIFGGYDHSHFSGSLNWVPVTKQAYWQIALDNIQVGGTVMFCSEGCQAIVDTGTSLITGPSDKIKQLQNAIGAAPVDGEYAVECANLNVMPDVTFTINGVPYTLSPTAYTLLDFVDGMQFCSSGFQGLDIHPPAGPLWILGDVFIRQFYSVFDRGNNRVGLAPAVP
Assay: Cathepsin E fluorescent substrate kinetic assay (MR121)
Conditions: pH 4.5, substrate MR121-CKLVFFAEDW
For each entry below, report its IC50 value.
Numbers only; they are read as µM.

Give the measured IC50 of C[C@@]1(c2cc(Nc3cccc4cc(OC(F)F)cnc34)ccc2F)COCC(N)=N1 [Example 29] . 17.6

Any idea what IC50 was measured for CC1(c2cccc(Nc3cc(F)cc4cc(Cl)cnc34)c2)COCC(N)=N1 (centres unmarked) [Example 36] ? 5

----------
Target: CYP2C9 (Homo sapiens (Human), UniProt P11712)
Sequence (P11712 whole entry): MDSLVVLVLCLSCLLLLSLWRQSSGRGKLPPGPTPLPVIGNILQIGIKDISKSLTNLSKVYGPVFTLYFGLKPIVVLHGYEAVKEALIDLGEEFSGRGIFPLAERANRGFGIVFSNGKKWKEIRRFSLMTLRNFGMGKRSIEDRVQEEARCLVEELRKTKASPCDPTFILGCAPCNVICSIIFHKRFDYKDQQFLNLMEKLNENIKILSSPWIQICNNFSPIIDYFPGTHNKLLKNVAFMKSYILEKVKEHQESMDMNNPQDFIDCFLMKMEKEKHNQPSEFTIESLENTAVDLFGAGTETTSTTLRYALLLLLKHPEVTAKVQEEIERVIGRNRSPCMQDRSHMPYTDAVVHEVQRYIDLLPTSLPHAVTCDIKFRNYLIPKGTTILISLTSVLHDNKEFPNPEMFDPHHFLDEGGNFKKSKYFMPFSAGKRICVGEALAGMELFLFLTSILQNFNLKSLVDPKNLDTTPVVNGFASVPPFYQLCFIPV
Experiment: CYP inhibition assay, human liver microsomes, diclofenac 4' hydroxylase
Assay type: in vitro ADME
Conditions: pooled human liver microsomes, diclofenac substrate; read-out: CYP IC50 2C9
quantity: IC50 (µM)
Express the result in µM but write the number alone.

Entry Cn1nc(Nc2ccc(F)c([C@@]3(C)COCC(N)=N3)c2)c2ccc(Cl)cc21 , system CYP2C9 (Homo sapiens (Human), UniProt P11712): what IC50 was measured? 6.7
